tested-target: CRF1R (Homo sapiens)
Sequence (P34998 24-415): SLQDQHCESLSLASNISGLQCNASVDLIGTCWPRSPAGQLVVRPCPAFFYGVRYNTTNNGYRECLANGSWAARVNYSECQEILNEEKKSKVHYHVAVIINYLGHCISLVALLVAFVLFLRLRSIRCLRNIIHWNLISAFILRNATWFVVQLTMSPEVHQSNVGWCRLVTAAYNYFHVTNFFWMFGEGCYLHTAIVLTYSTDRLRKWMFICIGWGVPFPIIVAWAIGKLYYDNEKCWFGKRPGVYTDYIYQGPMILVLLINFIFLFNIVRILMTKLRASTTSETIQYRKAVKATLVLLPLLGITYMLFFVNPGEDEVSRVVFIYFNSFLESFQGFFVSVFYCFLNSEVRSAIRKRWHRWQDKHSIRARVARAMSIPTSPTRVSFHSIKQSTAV
protocol: CRF1R agonist activity (EC50, Emax), called comparative CRF binding
Type: cell-based
setup-conditions: read-out: CRF1R EC50
Ends that are not written are not given here.
measurement-type: pEC50
pEC50 is a log-scale quantity: -log10 of the concentration expressed in molar.

Looking for the measured pEC50 of NDDPPISIDLPFFLLRNMIEMARIENEREQAGLNAKYLAEV-NH2 [compound 264] , can you help? 6.15

Looking for the measured pEC50 of NDDPPISIDLPFYLLRNMIEMARIENEREQAGLNAKYLAEV-NH2 [compound 261] , can you help? 6.56

Looking for the measured pEC50 of NDDPPISIDLPLHLLRNMIEMARIENEREQAGLNAKYLAEV-NH2 [compound 259] , can you help? 6.09

Looking for the measured pEC50 of NDDPPISIDLPLFLLRNMIEMARIENEREQAGLNAKYLAEV-NH2 [compound 257] , can you help? 6.13

Looking for the measured pEC50 of NDDPPISIDLPFHLLRNMIEMARIENEREQAGLNAKYLAEV-NH2 [compound 262] , can you help? 6.39

Numbers sourced from patent US7192924B2.
